biological target: TACE (Homo sapiens); experiment: TACE inhibition (fluorescent peptidyl substrate); assay type: biochemical; details: read-out: TACE IC50
Sequence (P78536 215-824): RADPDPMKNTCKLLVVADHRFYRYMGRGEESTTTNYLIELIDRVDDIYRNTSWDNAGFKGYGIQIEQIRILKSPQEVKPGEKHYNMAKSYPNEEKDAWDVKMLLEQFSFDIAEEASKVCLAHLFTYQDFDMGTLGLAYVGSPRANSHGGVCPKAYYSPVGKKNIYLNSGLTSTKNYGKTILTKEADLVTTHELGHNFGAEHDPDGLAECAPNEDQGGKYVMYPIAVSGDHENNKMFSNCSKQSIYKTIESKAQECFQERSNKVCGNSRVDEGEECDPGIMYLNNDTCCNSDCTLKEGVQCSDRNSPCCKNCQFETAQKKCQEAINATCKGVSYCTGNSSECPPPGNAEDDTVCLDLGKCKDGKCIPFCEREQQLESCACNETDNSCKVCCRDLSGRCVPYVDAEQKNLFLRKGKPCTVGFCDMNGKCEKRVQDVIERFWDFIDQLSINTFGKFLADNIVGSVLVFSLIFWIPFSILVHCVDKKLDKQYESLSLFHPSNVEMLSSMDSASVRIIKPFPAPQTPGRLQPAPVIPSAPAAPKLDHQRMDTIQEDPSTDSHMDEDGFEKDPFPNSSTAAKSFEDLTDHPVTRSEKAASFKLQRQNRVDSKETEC
Would you kindly list pIC50 for each of these compounds?
Reminder that pIC50 is minus the log10 of a molar concentration.

Prompt: What value of pIC50 on TACE (Homo sapiens) does CC#CCOc1ccc(S(=O)(=O)N(C)C(CSCc2ccccc2)C(=O)NO)cc1 (stereo not shown) have?
Completion: 8.32

Prompt: // next record CC#CCOc1ccc(S(=O)(=O)N2CCSC(CC)(CC)C2C(=O)NO)cc1 (stereo not shown)
Completion: 6.64

Prompt: // next record CC#CCOc1ccc(S(=O)(=O)N(C)C(C(=O)NO)C(C)(C)SCCCN(CC)CC)cc1 (stereo not shown)
Completion: 7.06

Prompt: // next record CC#CCOc1ccc(S(=O)(=O)N(CC#CCN(CC)CC)C(C(=O)NO)C(C)C)cc1 (stereo not shown)
Completion: 7.14

Prompt: // next record CC#CCOc1ccc(S(=O)(=O)N2CCSC(C)(C)C2C(=O)NO)cc1 (stereo not shown)
Completion: 8.08

Prompt: // next record CC#CCOc1ccc(S(=O)(=O)N(CCCCN2CCN(C)CC2)C(C(=O)NO)C(C)C)cc1 (stereo not shown)
Completion: 6.90

Prompt: // next record "CC#CCOc1ccc(S(=O)(=O)N(C)[C@@H](C)C(=O)NO)cc1"
Completion: 8.35

Prompt: // next record CC#CCOc1ccc(S(=O)(=O)N(C)C(C(=O)NO)C(C)(C)SCCN2CCCC2C(=O)OC)cc1 (stereo not shown)
Completion: 6.96

Prompt: // next record "CN(CC(=O)NO)S(=O)(=O)c1ccc(OCC#Cc2ccc(Cl)cc2)cc1"
Completion: 5.96

Prompt: // next record "C#CCNc1ccc(S(=O)(=O)N(C)CC(=O)NO)cc1"
Completion: 6.92
